molecular target: T1, SBD(∆CDE)-y, substrate-binding domain of human Hsp70 (HSPA1A) lacking αC, αD and αE, with the L542Y mutation (human, UniProt P0DMV8 382-564, L542Y); experiment: NMR titration; 2D 1H-15N HSQC; NR-peptide (0.075-6.0 mM) titrated into 0.3 mM 15N-labelled SBD(∆CDE)-y; 50 mM potassium phosphate pH 7.0, 50 mM KCl, 10 mM DTT, 37 °C; slow exchange; global fit of signal intensities of 28 residues; conditions: both partners purified
T1 construct: Cloned in pET16b (NdeI/XhoI); 15N- or 13C/15N-labelled for NMR, unlabelled (LB medium) for ITC; also called mutant SBD; apo-form SBD; source: E. coli BL21(DE3), purified (HisTrap FF, Factor Xa cleavage, HiTrap Q FF); not shown: His6, N-terminal, cleaved
T1 sequence (P0DMV8 382-564 L542Y): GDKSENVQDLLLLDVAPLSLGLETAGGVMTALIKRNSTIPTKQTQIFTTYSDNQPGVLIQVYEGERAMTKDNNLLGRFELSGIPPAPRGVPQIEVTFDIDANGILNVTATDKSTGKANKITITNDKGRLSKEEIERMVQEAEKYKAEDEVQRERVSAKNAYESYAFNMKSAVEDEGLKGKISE
MEASURED QUANTITY: Kd (µM)
A number alone suffices; assume µM.

Incoming: Kd for NRLLLTG (Model client peptide of Hsp70; also called NRLLLTG; client-peptide) [NR-peptide] ?
Outgoing: 1300
